Biological target: T1, TRAIL (human, UniProt P50591 114-281)
T1 construct: also called TNF-related apoptosis inducing ligand; recombinant human TRAIL (R&D Systems)
T1 sequence (P50591 114-281 limits assumed): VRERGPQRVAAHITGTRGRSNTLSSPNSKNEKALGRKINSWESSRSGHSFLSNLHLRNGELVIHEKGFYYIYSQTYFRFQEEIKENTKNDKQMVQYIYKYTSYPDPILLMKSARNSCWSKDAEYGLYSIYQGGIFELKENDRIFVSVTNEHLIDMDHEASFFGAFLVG
Experiment: ELISA on coated TRAIL, Fc-linked dimers; EC50 ratio to OPG(22-194).Fc wt; reduction in binding (higher EC50); # by extrapolation
measured_attribute: TRAIL fold change cf wt (fold)
Answer with a number only, understood to be in fold.

Worked examples follow.
OVP I115N (Fc fusion, Tested as C-terminal Fc-linked dimer with FLAG tag, from HEK 293 EBNA cells; signal peptide 1-21 processed; not shown: human Fc domain of vector pAPEX-3.Fc; C-terminal FLAG tag) ETFPPKYLHYDEETSHQLLCDKCPPGTYLKQHCTAKWKTVCAPCPDHYYTDSWHTSDECLYCSPVCKELQYVKQECNRTHNRVCECKEGRYLENEFCLKHRSCPPGFGVVQAGTPERNTVCKRCPDGFFSNETSSKAPCRKHTNCSVFGLLLTQKGNATHDNICSGNSESTQK = 390
OVP I115R (Fc fusion, Tested as C-terminal Fc-linked dimer with FLAG tag, from HEK 293 EBNA cells; signal peptide 1-21 processed; not shown: human Fc domain of vector pAPEX-3.Fc; C-terminal FLAG tag) ETFPPKYLHYDEETSHQLLCDKCPPGTYLKQHCTAKWKTVCAPCPDHYYTDSWHTSDECLYCSPVCKELQYVKQECNRTHNRVCECKEGRYLEREFCLKHRSCPPGFGVVQAGTPERNTVCKRCPDGFFSNETSSKAPCRKHTNCSVFGLLLTQKGNATHDNICSGNSESTQK = 50
OVP I115M, F128L (Fc fusion, Tested as C-terminal Fc-linked dimer with FLAG tag, from HEK 293 EBNA cells; signal peptide 1-21 processed; also called I115M plus: F128L; not shown: human Fc domain of vector pAPEX-3.Fc; C-terminal FLAG tag) ETFPPKYLHYDEETSHQLLCDKCPPGTYLKQHCTAKWKTVCAPCPDHYYTDSWHTSDECLYCSPVCKELQYVKQECNRTHNRVCECKEGRYLEMEFCLKHRSCPPGLGVVQAGTPERNTVCKRCPDGFFSNETSSKAPCRKHTNCSVFGLLLTQKGNATHDNICSGNSESTQK = 250

Now for the binder whose TRAIL fold change cf wt we want.
Which TRAIL fold change cf wt value is on record for OVP I115M, F128I (Fc fusion, Tested as C-terminal Fc-linked dimer with FLAG tag, from HEK 293 EBNA cells; signal peptide 1-21 processed; also called I115M plus: F128I; not shown: human Fc domain of vector pAPEX-3.Fc; C-terminal FLAG tag) ETFPPKYLHYDEETSHQLLCDKCPPGTYLKQHCTAKWKTVCAPCPDHYYTDSWHTSDECLYCSPVCKELQYVKQECNRTHNRVCECKEGRYLEMEFCLKHRSCPPGIGVVQAGTPERNTVCKRCPDGFFSNETSSKAPCRKHTNCSVFGLLLTQKGNATHDNICSGNSESTQK ? 250
